For reference, MIC measured on K. pneumoniae SI-117 producing VIM-1:

What value of MIC has been reported for the following molecule? NCCN1CCN(C(=O)N[C@H](C(=O)N[C@H]2Cc3cccc(C(=O)O)c3OB2O)c2ccc(O)cc2Cl)C(=O)C1=O (single isomer, unassigned) [Example 85] > 128 µg/mL

What value of MIC has been reported for the following molecule? C[C@H]1CN(CCNC(=O)c2ccc(O)c(O)c2Cl)C(=O)C(=O)N1C(=O)NC(C(=O)N[C@H]1Cc2cccc(C(=O)O)c2OB1O)c1ncc(O)cc1F (stereo partly drawn) [Example 2] 8 to 16 µg/mL

What value of MIC has been reported for the following molecule? CCN1CCN(C(=O)NC(C(=O)N[C@H]2Cc3cccc(C(=O)O)c3OB2O)c2ccc(C(=O)O)c(Cl)c2Cl)C(=O)C1=O (stereo partly drawn) [Example 201] > 128 µg/mL

What value of MIC has been reported for the following molecule? CCN1CCN(C(=O)NC(C(=O)N[C@H]2Cc3cccc(C(=O)O)c3OB2O)c2c(Cl)cc(C(=O)O)cc2Cl)C(=O)C1=O (stereo partly drawn) [Example 150] > 128 µg/mL

What value of MIC has been reported for the following molecule? NCCN1CCN(C(=O)N[C@H](C(=O)N[C@H]2Cc3ccc(F)c(C(=O)O)c3OB2O)c2c(F)cc(O)cc2F)C(=O)C1=O (single isomer, unassigned) [Example 128] > 128 µg/mL

What value of MIC has been reported for the following molecule? NCCN1CCN(C(=O)NC(C(=O)N[C@H]2Cc3cccc(C(=O)O)c3OB2O)c2cc(F)c(O)c(Cl)c2)C(=O)C1=O (stereo partly drawn) [Example 163] > 128 µg/mL

---

Would you kindly list MIC for each of these compounds?
- Test system: N. gonorrhoeae H041
- assay summary: Liquid broth MIC in Fastidious broth
- Assay type: cell-based
- measurement conditions: Neisseria gonorrhoeae, H041, read-out: Minimum Inhibitory Concentration, N. gonorrhoeae H041

Give recorded MIC with N. gonorrhoeae H041 for the following compound: `NCCCN1CCN(C(=O)N[C@H](C(=O)N[C@H]2Cc3cccc(C(=O)O)c3OB2O)c2cccc(NS(N)(=O)=O)c2)C(=O)C1=O` > 64 µg/mL

Give recorded MIC with N. gonorrhoeae H041 for the following compound: CS(=O)(=O)N1CCN(C(=O)NC(C(=O)N[C@H]2Cc3ccc(F)c(C(=O)O)c3OB2O)c2ccc(O)c(O)c2Cl)C1=O (stereo partly drawn) > 64 µg/mL

Give recorded MIC with N. gonorrhoeae H041 for the following compound: O=C(O)c1c(F)ccc2c1OB(O)[C@@H](NC(=O)C(NC(=O)N1CCN(CCBr)C(=O)C1=O)c1c(F)cc(O)c(O)c1F)C2 (stereo partly drawn) > 64 µg/mL

Give recorded MIC with N. gonorrhoeae H041 for the following compound: NCCN1CCN(C(=O)N[C@@H](C(=O)N[C@H]2Cc3cccc(C(=O)O)c3OB2O)c2ccc(O)c([N+](=O)[O-])c2)C(=O)C1=O (single isomer, unassigned) > 64 µg/mL

Give recorded MIC with N. gonorrhoeae H041 for the following compound: CCN1CCN(C(=O)N[C@H](C(=O)N[C@H]2Cc3cccc(C(=O)O)c3OB2O)c2ccc(C(=O)O)c(F)c2F)C(=O)C1=O (single isomer, unassigned) 4 to 8 µg/mL

Give recorded MIC with N. gonorrhoeae H041 for the following compound: NC(C(=O)N[C@H]1Cc2ccc(F)c(C(=O)O)c2OB1O)c1c(F)cc(O)c(O)c1Cl (stereo partly drawn) > 64 µg/mL

---

- Tested on: E. coli 901C
- assay summary: Broth microdilution MIC in CAMHB
- Format: cell-based
- measurement conditions: Escherichia coli; E. coli 901C (hyper-permeable); MHB; read-out: Minimum Inhibitory Concentration, E. coli 901C
Would you kindly list MIC for each of these compounds?

What value of MIC has been reported for the following compound? CCN1CCN(C(=O)NC(C(=O)N[C@H]2Cc3cccc(C(=O)O)c3OB2O)c2ccc(O)c(NS(C)(=O)=O)c2)C(=O)C1=O (stereo partly drawn) [Example 22] < 0.25 µg/mL

What value of MIC has been reported for the following compound? NCCN1CCN(C(=O)N[C@@H](C(=O)N[C@H]2Cc3cccc(C(=O)O)c3OB2O)c2ccc(C(=O)O)cc2)C(=O)C1=O (single isomer, unassigned) [Example 84] 0.5 to 1 µg/mL

What value of MIC has been reported for the following compound? CCN1CCN(C(=O)NC(C(=O)N[C@H]2Cc3ccc(SCCN4CCCC4)c(C(=O)O)c3OB2O)c2csc(N)n2)C(=O)C1=O (stereo partly drawn) [Example 64] 32 to 64 µg/mL

---

- System: P. aeruginosa (ΔmexAB-oprM)
- assay summary: Broth microdilution MIC in CAMHB
- Assay type: cell-based
- measurement conditions: Pseudomonas aeruginosa, read-out: Minimum Inhibitory Concentration, P. aeruginosa ΔmexAB-OprM
measured property: MIC

Give recorded MIC with P. aeruginosa (ΔmexAB-oprM) for the following compound: O=C(O)c1c(F)ccc2c1OB(O)[C@@H](NC(=O)C(NC(=O)N1CCN(CCF)C(=O)C1=O)c1c(F)cc(O)cc1F)C2 (stereo partly shown) 32 to 64 µg/mL

Give recorded MIC with P. aeruginosa (ΔmexAB-oprM) for the following compound: CCN1CCN(C(=O)NC(C(=O)N[C@H]2Cc3cccc(C(=O)O)c3OB2O)c2ccc(P(=O)(O)O)cc2)C(=O)C1=O (stereo partly shown) 8 to 16 µg/mL

Give recorded MIC with P. aeruginosa (ΔmexAB-oprM) for the following compound: NCCN1CCN(C(=O)NC(C(=O)N[C@H]2Cc3cccc(C(=O)O)c3OB2O)c2cc(F)c(O)c(Cl)c2)C(=O)C1=O (stereo partly shown) 2 to 4 µg/mL

Give recorded MIC with P. aeruginosa (ΔmexAB-oprM) for the following compound: CCN1CCN(C(=O)NC(C(=O)N[C@H]2Cc3cccc(C(=O)O)c3OB2O)c2c(F)cc(NS(N)(=O)=O)cc2F)C(=O)C1=O (stereo partly shown) 32 to 64 µg/mL

Give recorded MIC with P. aeruginosa (ΔmexAB-oprM) for the following compound: NS(=O)(=O)c1cccc(C(NC(=O)N2CCN(CCF)C(=O)C2=O)C(=O)N[C@H]2Cc3cccc(C(=O)O)c3OB2O)c1 (stereo partly shown) 8 to 16 µg/mL

Give recorded MIC with P. aeruginosa (ΔmexAB-oprM) for the following compound: NCCN1CCN(C(=O)N[C@@H](C(=O)N[C@H]2Cc3cccc(C(=O)O)c3OB2O)c2ccc(O)c(Cl)c2F)C(=O)C1=O (single isomer, unassigned) 8 to 16 µg/mL

Give recorded MIC with P. aeruginosa (ΔmexAB-oprM) for the following compound: CCN1CCN(C(=O)NC(C(=O)N[C@H]2Cc3cccc(C(=O)O)c3OB2O)c2ccc(O)cc2OC)C(=O)C1=O (stereo partly shown) 8 to 16 µg/mL

---

Would you kindly list pEC50 for each of these compounds?
- target or system: E. coli K12 PBP3 (Escherichia coli)
- Sequence (P0AD68 1-577): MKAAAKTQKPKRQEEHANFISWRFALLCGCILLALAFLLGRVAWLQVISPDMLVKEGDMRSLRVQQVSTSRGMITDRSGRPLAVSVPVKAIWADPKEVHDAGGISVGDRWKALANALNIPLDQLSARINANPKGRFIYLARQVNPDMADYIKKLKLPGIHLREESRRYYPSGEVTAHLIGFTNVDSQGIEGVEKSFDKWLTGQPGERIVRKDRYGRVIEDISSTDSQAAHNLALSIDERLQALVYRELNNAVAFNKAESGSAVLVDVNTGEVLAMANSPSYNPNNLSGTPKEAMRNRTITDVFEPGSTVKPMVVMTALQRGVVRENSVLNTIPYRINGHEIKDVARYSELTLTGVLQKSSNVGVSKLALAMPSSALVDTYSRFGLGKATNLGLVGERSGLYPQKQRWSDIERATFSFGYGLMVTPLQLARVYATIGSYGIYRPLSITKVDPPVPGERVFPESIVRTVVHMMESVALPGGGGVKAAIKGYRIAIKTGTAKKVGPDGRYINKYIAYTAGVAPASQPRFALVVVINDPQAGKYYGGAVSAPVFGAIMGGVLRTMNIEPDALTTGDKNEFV
- assay summary: biochemical
pEC50: −log10 of the molar value.

What value of pEC50 has been reported for the following compound? NCCN1CCN(C(=O)NC(C(=O)N[C@H]2Cc3cccc(C(=O)O)c3OB2O)c2cc(F)c(O)cc2Cl)C(=O)C1=O (stereo partly drawn) > 4.52

What value of pEC50 has been reported for the following compound? CCN1CCN(C(=O)NC(C(=O)N[C@H]2Cc3cccc(C(=O)O)c3OB2O)c2cc(F)c(O)c(F)c2)C(=O)C1=O (stereo partly drawn) > 4.52

What value of pEC50 has been reported for the following compound? NC1(CN2CCN(C(=O)N[C@@H](C(=O)N[C@H]3Cc4ccc(F)c(C(=O)O)c4OB3O)c3cc(F)c(O)c(O)c3Cl)C(=O)C2=O)CC1 (single isomer, unassigned) 3.30 to 4.52

What value of pEC50 has been reported for the following compound? NCCCN1CCN(C(=O)N[C@@H](C(=O)N[C@H]2Cc3ccc(F)c(C(=O)O)c3OB2O)c2cc(F)c(O)c(O)c2Cl)C(=O)C1=O (single isomer, unassigned) > 4.52

What value of pEC50 has been reported for the following compound? CCN1CCN(C(=O)NC(C(=O)N[C@H]2Cc3ccc(S)c(C(=O)O)c3OB2O)c2csc(N)n2)C(=O)C1=O (stereo partly drawn) 3.30 to 4.52

What value of pEC50 has been reported for the following compound? O=C(O)c1c(F)ccc2c1OB(O)[C@@H](NC(=O)C(NC(=O)N1CCN(CCF)C(=O)C1=O)c1c(F)cc(O)cc1F)C2 (stereo partly drawn) > 4.52

---

- Test system: E. coli 901C
- assay summary: Broth microdilution MIC in CAMHB
- Format: cell-based
- measurement conditions: Escherichia coli; E. coli 901C (hyper-permeable); MHB; read-out: Minimum Inhibitory Concentration, E. coli 901C
measured property: MIC

Give recorded MIC with E. coli 901C for the following molecule: CCN1CCN(C(=O)NC(C(=O)N[C@H]2Cc3cccc(C(=O)O)c3OB2O)c2c(F)cc(C(=O)O)cc2F)C(=O)C1=O (stereo partly drawn) [Example 157] < 0.25 µg/mL

Give recorded MIC with E. coli 901C for the following molecule: NCCN1CCN(C(=O)N[C@H](C(=O)N[C@H]2Cc3cccc(C(=O)O)c3OB2O)c2ccc(O)c(Cl)c2F)C(=O)C1=O (single isomer, unassigned) [Example 187] 2 to 4 µg/mL

Give recorded MIC with E. coli 901C for the following molecule: NCCN1CCN(C(=O)N[C@H](C(=O)N[C@H]2Cc3cccc(C(=O)O)c3OB2O)c2ccc(C(=O)O)cc2)C(=O)C1=O (single isomer, unassigned) [Example 83] < 0.25 µg/mL

Give recorded MIC with E. coli 901C for the following molecule: O=C(Nc1ccccc1)NC(C(=O)N[C@H]1Cc2ccc(F)c(C(=O)O)c2OB1O)c1ncc(O)cc1F (stereo partly drawn) [Example 49] 32 to 64 µg/mL

Give recorded MIC with E. coli 901C for the following molecule: NCCN1CCN(C(=O)N[C@@H](C(=O)N[C@H]2Cc3cccc(C(=O)O)c3OB2O)c2c(F)cccc2Cl)C(=O)C1=O (single isomer, unassigned) [Example 205] 8 to 16 µg/mL

Give recorded MIC with E. coli 901C for the following molecule: CCN1CCN(C(=O)NC(C(=O)N[C@H]2Cc3cccc(C(=O)O)c3OB2O)c2c(F)c(F)c(O)c(F)c2F)C(=O)C1=O (stereo partly drawn) [Example 175] < 0.25 µg/mL
